Kindly state PBM binding z-score for each of the entries shown.
tested on: LXRb homodimer (NR concentration 270 nM); experiment: PBM binding z-score (relative to random genomic background probes); higher = stronger binding; sequences stand for … in GC…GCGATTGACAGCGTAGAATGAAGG
Give bare numbers.

// below: answered sequences
[
  {
    "POLYMER SEQUENCE": "CCTTACGGGACACTGACAGGTTATAGCATTTGGA",
    "REPORTED": -0.248
  },
  {
    "POLYMER SEQUENCE": "CAAACTAGGTCAAGGTCAAAGTGGGTTTGTGCCA",
    "REPORTED": 1.29
  },
  {
    "POLYMER SEQUENCE": "TCTTGTAGATCAAGCTGGTTAAGAAAGCCTGAGT",
    "REPORTED": -0.299
  },
  {
    "POLYMER SEQUENCE": "TTTACAGGGTCAAAGGCCAGAGTACGAATGTCGA",
    "REPORTED": 1.18
  },
  {
    "POLYMER SEQUENCE": "GCTAGTTGGTCAGTTAAAGGTCACACACCGGTCG",
    "REPORTED": 0.905
  },
  {
    "POLYMER SEQUENCE": "GCTATTAGTTGAAAGGGCTACCGAATGATTCTCG",
    "REPORTED": -0.468
  },
  {
    "POLYMER SEQUENCE": "CCTACTGGGCCAAAGTCATTGATCAGTCAAAGCA",
    "REPORTED": -1.2
  },
  {
    "POLYMER SEQUENCE": "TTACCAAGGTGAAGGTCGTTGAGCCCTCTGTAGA",
    "REPORTED": -1.13
  }
]

State recorded PBM binding z-score for all listed sequences.
1. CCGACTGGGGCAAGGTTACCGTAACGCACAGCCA
2. TCTATTCGTTGATTAGGGCAACCGAAACAGCGGA
3. CCTACTGGGCTATCAGGTCATTGATATCAACGTT
4. TTACCAAGGTAAAGGTCGTTGATCCCTCTGTAGA
5. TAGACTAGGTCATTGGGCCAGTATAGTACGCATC
6. CCTAGTTGGTCACGAGGTCACACACCGGATATGA

-1.12
0.94
-0.189
-0.332
0.785
0.56
